Hello, the source for this data is ChEMBL document CHEMBL1795271, in case you need it.

Tested on: Enterococcus faecalis
test protocol: Antibacterial activity against vancomycin-resistant Enterococcus faecalis after 16 to 24 hrs by twofold serial dilution method
measurement kind: MIC (µg/mL)
Reply numerically in µg/mL, unit not repeated.

Solved cases (2 shown):
>>> df
                               query_smiles  unit_tag  quantitative_readout
0  COCCCCCn1nnc2cc(NCc3ccc(Cl)c(Cl)c3)[nH]c(=O)c21     µg/mL                    10
1  CC(=O)OCCCCCn1cnc2nc(NCc3ccc(Cl)c(Cl)c3)nc(O)c21     µg/mL                     5

Enquiry: Using the record for `CCc1cc(Nc2cc(=O)n(CCCCO)c(=O)[nH]2)ccc1C` , report its MIC.
Return: 5
